pH in clear solution for assorted compounds
test: Dynamic solubility test in water, SGF, FeSSIF, FaSSIF; format: physicochemical; conditions: Water, Time 1; dihydrochloride
Structures can show the parent of a compound that is named as a salt.
Write the number on its own, no unit after it.

Compound	pH in clear solution
CC1CCN(C(=O)c2ccc([C@H](c3cccc(O)c3)N3C[C@@H](C)N(Cc4cccc(F)c4)C[C@@H]3C)cc2)CC1 [Polymorph form J, dihydrochloride]	1.8
CC1CCN(C(=O)c2ccc([C@H](c3cccc(O)c3)N3C[C@@H](C)N(Cc4cccc(F)c4)C[C@@H]3C)cc2)CC1 [Polymorph form P, dihydrochloride]	1.9

Value of pH in clear solution reported for the compound CC1CCN(C(=O)c2ccc([C@H](c3cccc(O)c3)N3C[C@@H](C)N(Cc4cccc(F)c4)C[C@@H]3C)cc2)CC1 [Polymorph form O, dihydrochloride] is 1.9

Value of pH in clear solution reported for the compound CC1CCN(C(=O)c2ccc([C@H](c3cccc(O)c3)N3C[C@@H](C)N(Cc4cccc(F)c4)C[C@@H]3C)cc2)CC1 [Polymorph form B, dihydrochloride] is 1.8

Value of pH in clear solution reported for the compound CC1CCN(C(=O)c2ccc([C@H](c3cccc(O)c3)N3C[C@@H](C)N(Cc4cccc(F)c4)C[C@@H]3C)cc2)CC1 [Polymorph form F, dihydrochloride] is 1.8

Measured values drawn from patent US10730851B2 for this set.
